Reported koff values for a set of binders
molecular target: T1, recombinant cynomolgus PDL1 (cynomolgus monkey, UniProt G7PSE7 19-238); test: SPR
T1 construct: also called cynom; PDL1
T1 sequence (G7PSE7 entry or part of it): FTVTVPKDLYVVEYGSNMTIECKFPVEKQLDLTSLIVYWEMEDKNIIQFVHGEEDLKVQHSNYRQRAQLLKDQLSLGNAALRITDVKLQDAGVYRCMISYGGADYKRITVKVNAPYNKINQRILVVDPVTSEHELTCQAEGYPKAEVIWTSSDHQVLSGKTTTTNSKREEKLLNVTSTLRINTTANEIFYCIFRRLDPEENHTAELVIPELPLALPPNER
Dear colleague, please return just the value in s⁻¹, with no unit written.

{"columns": ["BINDER", "QUANTITATIVE_RESULT"],
 "data": [
  ["PRO1347 (scFv, anti-PDL1 scFv; also called 37-20-B03-sc09) scFv: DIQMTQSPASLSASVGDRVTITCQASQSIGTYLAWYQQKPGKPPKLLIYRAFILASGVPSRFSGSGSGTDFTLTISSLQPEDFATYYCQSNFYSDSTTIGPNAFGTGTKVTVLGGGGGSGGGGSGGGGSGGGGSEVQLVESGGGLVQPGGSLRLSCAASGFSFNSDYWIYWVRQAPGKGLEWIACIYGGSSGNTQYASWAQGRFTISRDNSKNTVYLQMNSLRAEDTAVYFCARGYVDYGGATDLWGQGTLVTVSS", "8.77e-05"]
]}

# next binder below
Q: For the binder PRO2230 (scFv, anti-PDL1 scFv; also called 37-20-B03-sc09.1) scFv: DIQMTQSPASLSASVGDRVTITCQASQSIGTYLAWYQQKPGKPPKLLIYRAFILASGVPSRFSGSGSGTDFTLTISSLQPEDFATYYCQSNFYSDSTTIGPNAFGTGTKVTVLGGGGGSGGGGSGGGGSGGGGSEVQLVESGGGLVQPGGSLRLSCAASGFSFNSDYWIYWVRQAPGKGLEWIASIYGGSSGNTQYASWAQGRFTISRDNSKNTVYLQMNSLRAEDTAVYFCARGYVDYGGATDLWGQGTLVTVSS , give its measured koff value.
Result: 8.4e-05
